- test: soluble on expression in E. coli; label from the status in PepcDB or PDB records

| biosequence | soluble on expression in E. coli |
| --- | --- |
| MSILDTEVTLINGEKASMDQWAGHCLLIVNTASECGYTPQLETLEELYEDYAMRGFFVIGVPCNQFGEEEPGKDAQVARRYEEKFGVRFPLLAKSDVNGPNTIELYKKLKGDGPDIEWNFEKFIVAPSGEVVGRFAPSLDPDDMKIINVLEEYLPI | soluble |
| MSAPFEERSGVVPCGTPWGQWYQTLEEVFIEVQVPPGTRAQDIQCGLQSRHVALAVGGREILKGKLFDSTIADEGTWTLEDRKMVRIVLTKTKRDAANCWTSLLESEYAADPWVQDQMQRKLTLERFQKENPGFDFSGAEISGNYTKGGPDFSNLEK | soluble |
